# Method description: Cytotoxicity against human M4Beu cells by resazurin reduction test
# Type: functional, cell-based
pIC50: −log10 of the molar value.
Measured attribute: pIC50

> print(dat)
                        structure.as.smiles  limit.operator  measurement
1  CC(=O)OC[C@H]1O[C@@H](NC(=O)CCNC(=O)CCCc2ccc(N(CCCl)CCCl)cc2)[C@H](F)[C@@H](OC(C)=O)[C@@H]1OC(C)=O               =         4.82
2  CC(=O)OC[C@H]1O[C@@H](NC(=O)CNC(=O)CCCc2ccc(N(CCCl)CCCl)cc2)[C@H](F)[C@@H](OC(C)=O)[C@@H]1OC(C)=O               =         5.17
3  CC(=O)OC[C@H]1O[C@@H](Oc2ccc(NC(=O)CCCc3ccc(N(CCCl)CCCl)cc3)cc2)[C@H](F)[C@@H](OC(C)=O)[C@@H]1OC(C)=O               <         4.30
4  CC(=O)OC[C@H]1O[C@@H](NC(=O)NCCCc2ccc(N(CCCl)CCCl)cc2)[C@H](F)[C@@H](OC(C)=O)[C@@H]1OC(C)=O               =         4.57
5            O=C(O)CCCc1ccc(N(CCCl)CCCl)cc1               <         4.00
6  CC(=O)OC[C@H]1O[C@@H](NC(=O)CCCNC(=O)CCCc2ccc(N(CCCl)CCCl)cc2)[C@H](F)[C@@H](OC(C)=O)[C@@H]1OC(C)=O               =         5.05
7  CC(=O)OC[C@H]1O[C@@H](NC(=O)CCCc2ccc(N(CCCl)CCCl)cc2)[C@H](F)[C@@H](OC(C)=O)[C@@H]1OC(C)=O               =         4.57
8  CC(=O)OC[C@H]1O[C@@H](Oc2ccc(NC(=O)CNC(=O)CCCc3ccc(N(CCCl)CCCl)cc3)cc2)[C@H](F)[C@@H](OC(C)=O)[C@@H]1OC(C)=O               =         4.85
9  CC(=O)OC[C@H]1O[C@@H](NC(=O)c2ccc(NC(=O)CCCc3ccc(N(CCCl)CCCl)cc3)cc2)[C@H](F)[C@@H](OC(C)=O)[C@@H]1OC(C)=O               =         5.15
